Values compiled from patent US10800791B2.

Below: a set of entries, each annotated with reported IC90.
tested on: Septoria tritici (St); assay: Growth inhibition assay of fungal pathogens, St; assay type: cell-based; conditions: Zymoseptoria tritici, 48 h, Septoria tritici; growth inhibition at 48 hours vs 2% DMSO control; read-out: Concentration at 90% Inhibition St
experimental-endpoint: IC90

>>> result("COc1ccc(F)cc1[C@H](Cn1c(=O)n(C(C)(C)C(=O)O)c(=O)c2c(C)c(-n3nccn3)sc21)OC1CCC(=O)CC1")
"> 50 µg/mL"
>>> result("COCCO[C@@H](Cn1c(=O)n(CC(=O)N2CCCC2)c(=O)c2c(C)c(-n3nccn3)sc21)c1cc(F)ccc1OC")
"> 50 µg/mL"
>>> result("CCNC(=O)C(C)(C)n1c(=O)c2c(C)c(-n3nccn3)sc2n(C[C@H](OCCC#N)c2ccccc2OC)c1=O")
"> 50 µg/mL"
>>> result("COc1ccc(F)cc1[C@H](Cn1c(=O)n(C(C)(C)C(N)=O)c(=O)c2c(C)c(-n3nccn3)sc21)OCC(C)C")
"> 50 µg/mL"
>>> result("COc1ccc(F)cc1[C@H](Cn1c(=O)n([C@H](C)C(=O)NC2CCC2)c(=O)c2c(C)c(-n3nccn3)sc21)OCCO")
"2 µg/mL"
>>> result("COCCO[C@@H](Cn1c(=O)n([C@H](C)C(=O)N2CCCC2)c(=O)c2c(C)c(-n3nccn3)sc21)c1cc(F)ccc1OC")
"> 50 µg/mL"
>>> result("COCCCO[C@@H](Cn1c(=O)n([C@H](C)C(=O)NC(C)C)c(=O)c2c(C)c(-n3nccn3)sc21)c1cc(F)ccc1OC")
"10 µg/mL"
>>> result("CCNC(=O)C(C)(C)n1c(=O)c2c(C)c(-n3nccn3)sc2n(C[C@H](OCC(C)C)c2cc(F)ccc2OC)c1=O")
"10 µg/mL"
>>> result("COCCCO[C@@H](Cn1c(=O)n(C(C)(C)C(=O)N2CCCC2)c(=O)c2c(C)c(-n3nccn3)sc21)c1cc(F)ccc1OC")
"> 50 µg/mL"
>>> result("COc1ccc(F)cc1[C@@H](O)Cn1c(=O)n(C(C)(C)C(N)=O)c(=O)c2c(C)c(-n3nccn3)sc21")
"> 50 µg/mL"
>>> result("Cc1c(-n2nccn2)sc2c1c(=O)n(C(C)(C)C(=O)NC(C)C)c(=O)n2C[C@H](OCCC#N)c1cc(F)ccc1O")
"> 50 µg/mL"
>>> result("COc1ccc(F)cc1[C@H](Cn1c(=O)n(CC(=O)N2CCCC2)c(=O)c2c(C)c(-n3nccn3)sc21)OCCO")
"> 50 µg/mL"
>>> result("COc1ccc(F)cc1[C@H](Cn1c(=O)n([C@H](C)C(=O)N2CCCC2)c(=O)c2c(C)c(-n3nccn3)sc21)OCCC#N")
"> 50 µg/mL"

---

molecular target: fungal (fACC2) (UniProt Q00955); conditions: read-out: fACC2 (in vitro ACC2 Inhibition Assay, IC50); Table 2b, additional results; ADP-Glo, 5 nM ACC2, 20 μM ATP, 20 μM acetyl-CoA
Sequence (Q00955 whole entry): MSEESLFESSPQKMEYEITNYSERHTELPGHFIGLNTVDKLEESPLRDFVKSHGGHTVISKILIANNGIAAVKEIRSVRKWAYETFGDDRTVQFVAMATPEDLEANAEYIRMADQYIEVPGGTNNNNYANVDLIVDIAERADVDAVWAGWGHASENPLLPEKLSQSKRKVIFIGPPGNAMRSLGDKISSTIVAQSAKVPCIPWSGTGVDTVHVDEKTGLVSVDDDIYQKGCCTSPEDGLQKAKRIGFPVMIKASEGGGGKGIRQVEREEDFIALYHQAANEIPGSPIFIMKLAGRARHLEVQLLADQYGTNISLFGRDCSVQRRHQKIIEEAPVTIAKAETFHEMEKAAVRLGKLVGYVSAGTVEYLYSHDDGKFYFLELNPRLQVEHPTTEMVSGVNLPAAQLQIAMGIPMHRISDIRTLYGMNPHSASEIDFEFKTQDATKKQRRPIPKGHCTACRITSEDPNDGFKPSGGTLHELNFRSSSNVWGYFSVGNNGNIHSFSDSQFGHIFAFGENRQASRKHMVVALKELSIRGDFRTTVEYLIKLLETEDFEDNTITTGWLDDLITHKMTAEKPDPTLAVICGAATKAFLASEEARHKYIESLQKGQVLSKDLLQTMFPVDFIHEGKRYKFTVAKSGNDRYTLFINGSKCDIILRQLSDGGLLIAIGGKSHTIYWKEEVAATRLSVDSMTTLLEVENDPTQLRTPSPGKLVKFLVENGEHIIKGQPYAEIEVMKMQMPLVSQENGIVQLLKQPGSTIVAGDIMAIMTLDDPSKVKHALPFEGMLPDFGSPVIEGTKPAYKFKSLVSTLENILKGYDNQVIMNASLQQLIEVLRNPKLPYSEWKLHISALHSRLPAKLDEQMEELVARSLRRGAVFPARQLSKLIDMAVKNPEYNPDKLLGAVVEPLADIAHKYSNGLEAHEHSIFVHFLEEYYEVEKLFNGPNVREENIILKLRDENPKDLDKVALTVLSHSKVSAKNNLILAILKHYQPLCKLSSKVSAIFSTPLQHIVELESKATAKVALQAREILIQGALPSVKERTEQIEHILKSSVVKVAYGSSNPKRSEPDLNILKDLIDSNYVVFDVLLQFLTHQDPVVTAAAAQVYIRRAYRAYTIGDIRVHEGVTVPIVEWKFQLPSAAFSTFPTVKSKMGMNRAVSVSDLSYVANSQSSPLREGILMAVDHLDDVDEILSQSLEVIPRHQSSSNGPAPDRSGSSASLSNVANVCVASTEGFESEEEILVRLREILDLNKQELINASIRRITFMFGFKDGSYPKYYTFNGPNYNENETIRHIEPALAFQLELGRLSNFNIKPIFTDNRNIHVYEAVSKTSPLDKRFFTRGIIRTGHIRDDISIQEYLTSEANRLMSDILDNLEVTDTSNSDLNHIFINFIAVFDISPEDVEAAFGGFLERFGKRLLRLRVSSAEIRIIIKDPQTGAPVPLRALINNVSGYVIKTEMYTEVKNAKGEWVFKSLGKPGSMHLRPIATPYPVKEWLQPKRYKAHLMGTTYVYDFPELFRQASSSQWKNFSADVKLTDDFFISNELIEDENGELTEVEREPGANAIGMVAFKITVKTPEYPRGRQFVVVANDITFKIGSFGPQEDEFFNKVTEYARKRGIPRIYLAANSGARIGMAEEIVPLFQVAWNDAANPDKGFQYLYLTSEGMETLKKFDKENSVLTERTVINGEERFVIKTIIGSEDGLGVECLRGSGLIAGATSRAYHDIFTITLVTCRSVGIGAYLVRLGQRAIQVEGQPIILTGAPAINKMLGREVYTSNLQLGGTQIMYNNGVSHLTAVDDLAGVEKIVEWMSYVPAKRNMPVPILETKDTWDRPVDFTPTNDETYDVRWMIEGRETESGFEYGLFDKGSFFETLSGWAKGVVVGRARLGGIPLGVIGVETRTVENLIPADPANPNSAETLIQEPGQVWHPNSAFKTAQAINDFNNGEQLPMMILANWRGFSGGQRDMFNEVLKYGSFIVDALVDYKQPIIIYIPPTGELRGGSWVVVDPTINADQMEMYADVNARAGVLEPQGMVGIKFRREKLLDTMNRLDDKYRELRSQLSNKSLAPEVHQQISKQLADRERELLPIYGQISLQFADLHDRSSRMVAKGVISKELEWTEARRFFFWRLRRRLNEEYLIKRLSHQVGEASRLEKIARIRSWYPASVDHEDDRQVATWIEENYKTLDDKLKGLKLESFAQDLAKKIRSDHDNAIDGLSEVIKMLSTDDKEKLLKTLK
pIC50: −log10 of the molar value.
experimental-endpoint: pIC50

>>> result("CCc1ccc(F)cc1[C@H](Cn1c(=O)n(C(C)(C)C(=O)O)c(=O)c2c(C)c(-n3nccn3)sc21)OCCO [Compound I-125]")
"9.00 to 9.52"
>>> result("CNC(=O)C(C)(C)n1c(=O)c2c(C)c(-n3nccn3)sc2n(C[C@H](OCCC#N)c2cc(F)ccc2OC)c1=O [Compound I-141]")
"8.30 to 9.00"
>>> result("COc1ccc(C#N)cc1[C@H](Cn1c(=O)n(C(C)(C)C(=O)NC(C)C)c(=O)c2c(C)c(-n3nccn3)sc21)OCC(C)(C)C#N [Compound I-223]")
"8.30 to 9.00"
>>> result("COc1ccc(F)cc1[C@H](Cn1c(=O)n(C(C)(C)C(=O)NC(C)C)c(=O)c2c(C)c(-n3nccn3)sc21)OC[C@H](C)O [Compound I-47]")
"8.30 to 9.00"
>>> result("COCCCO[C@@H](Cn1c(=O)n(C(C)C(=O)NC(C)C)c(=O)c2c(C)c(-n3nccn3)sc21)c1cc(F)ccc1OC (stereo partly drawn) [Compound I-130]")
"9.00 to 9.52"
>>> result("CCNC(=O)C(C)(C)n1c(=O)c2c(C)c(-n3nccn3)sc2n(C[C@@H](OC(C)=O)c2cc(F)ccc2OC)c1=O [Compound I-260]")
"9.00 to 9.52"
